assay: inhibitors of triacylglycerol accumulation, primary screen, cell-based, uHTS, fluorescence, H9c2 (AID 651582); settings: H9c2 cells, Nile Red lipid (TAG) fluorescence, at 12.5 µM, cells loaded with 200 µM oleic acid
About 1,500 (0.65%) of roughly 230,000 compounds were called active.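 The calls were made as follows: active = pattern-corrected inhibition of lipid staining of at least 50% with the nuclear-stain viability signal not falling by more than 50%; inactive = the rest, inconclusive results apart.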 Shown is part of a subset that was picked to be rich in actives.
Field 'call' accepts Y for active, N for inactive

Solved entries (count: 5):
{"compound": "CC1CN(Cc2ccco2)C(=S)N(c2ccccc2)C1=O (stereo unspecified)", "cat": "N"}
{"compound": "O=C(NCCN1CCOCC1)c1ccc2c(c1)ncn2C1CCCC1", "cat": "N"}
{"compound": "COc1cc(/C=C2\\Oc3ccc(C#Cc4ccc(O)cc4)cc3C2=O)cc(OC)c1", "cat": "Y"}
{"compound": "CN(CCc1ccccc1)C(=O)c1cccc(NC(=O)Cc2ccc([N+](=O)[O-])cc2)c1", "cat": "N"}
{"compound": "O=C(NCCN1CCOCC1)c1cc(-c2cccs2)nc2ccccc12", "cat": "N"}

Now consider a different compound.
Ask | Given c1ccc2cc3c(NCCN4CCOCC4)ccnc3cc2c1 , state the outcome it received in this test.
Reply | Y

* * *

Record form. Attribute: DAPI nuclei signal change (viability), lower = more cytotoxic. Fill in for each entry.
assay: inhibitors of triacylglycerol accumulation, primary screen, cell-based, uHTS, fluorescence, H9c2 (AID 651582); conditions: H9c2 cells, Nile Red lipid (TAG) fluorescence, at 12.5 µM, cells loaded with 200 µM oleic acid; measured here: DAPI nuclei count viability
Hit rate of the full screen: of about 230,000 compounds, about 1,500 (0.65%) were called active. What follows is part of a selection rich in actives, with near analogues and random picks from the rest.
Give bare numbers, in %.

Consider the following items and state reported DAPI nuclei signal change (viability), lower = more cytotoxic for each.
1. COc1ccc(NC(=O)C(=O)NCC(=O)Nc2cccc(C(F)(F)F)c2)cc1
2. N#Cc1ccc(Oc2ccc(C(F)(F)F)cc2NC(=O)c2ccc(F)cc2)cc1

Reply |
1: -2.54; 2: 4.06

Consider the following items and state reported DAPI nuclei signal change (viability), lower = more cytotoxic for each.
1. Cc1nc2ccc(C(=O)O)cc2[nH]1
2. O=C(O)c1ccc([N+](=O)[O-])cc1Sc1ccsc1
3. CC1C(=O)N(Cc2cn(CC3CCCCC3)nn2)CCS(=O)(=O)N1Cc1ccc(-c2cccc(N(C)C)c2)cc1 (stereo not given)
4. COc1ccc2nc(SCC(=O)Nc3c(C)cc(C)cc3C)[nH]c2c1
5. COc1ccc(C(=O)N2CCCCC2c2cc(C(=O)Nc3ccc(F)c(Cl)c3)no2)cc1 (stereo not given)

Reply |
1. 7.29
2. -1.85
3. -0.553
4. -8.51
5. -1.17

Consider the following items and state reported DAPI nuclei signal change (viability), lower = more cytotoxic for each.
1. COC(=O)c1ccc(-c2c(-c3ccccc3)ncc3cc(OC)c(OC)cc23)cc1
2. COC(=O)Nc1nc2ccc(Sc3ccccc3)cc2[nH]1

Reply |
1: -46.2; 2: -43.5

Ask | Name the recorded DAPI nuclei signal change (viability), lower = more cytotoxic of the compound listed here: CCOC(=O)/C=c1\s/c(=C\c2ccc(C#N)cc2)c(=O)n1CC(=O)Nc1cccc(C)c1C
Reply | -32.2

* * *

Record form. Attribute: inhibition. Fill in for each entry.
assay: inhibitors of triacylglycerol accumulation, primary screen, cell-based, uHTS, fluorescence, H9c2 (AID 651582); conditions: H9c2 cells, Nile Red lipid (TAG) fluorescence, at 12.5 µM, cells loaded with 200 µM oleic acid; stronger effect = higher value;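 as to inhibition: 0% = DMSO wells and 100% = triacsin C control wells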
Screen size: about 230,000 compounds; about 1,500 (0.65%) were called active. Shown is part of a subset that was picked to be rich in actives.
Answers are plain numbers, in %.

Some solved entries appear below for comparison.
{"structure-notation": "COc1ccc(-c2cc(NC=O)c3ncc(-c4cccc(C(=O)N(C)C)c4)n3c2)c(OC)c1", "inhibition / %": 46}
{"structure-notation": "COc1ccc(-c2cc(NC=O)c3ncc(-c4cc(OC)c(OC)c(OC)c4)n3c2)c(OC)c1", "inhibition / %": 52.6}
{"structure-notation": "O=C(O)c1ccc([N+](=O)[O-])cc1Sc1ccsc1", "inhibition / %": -10.5}

Consider the following items and state reported inhibition for each.
1. COc1ccc(-c2cc(NC=O)c3ncc(-c4ccccc4)n3c2)cc1OC
2. COC(=O)Nc1nc2ccc(Sc3ccccc3)cc2[nH]1

Reply |
1. 19.6
2. 58.7

* * *

Record form. Attribute: DAPI nuclei signal change (viability), lower = more cytotoxic. Fill in for each entry.
assay: inhibitors of triacylglycerol accumulation, primary screen, cell-based, uHTS, fluorescence, H9c2 (AID 651582); settings: H9c2 cells, Nile Red lipid (TAG) fluorescence, at 12.5 µM, cells loaded with 200 µM oleic acid; measured here: DAPI nuclei count viability
About 1,500 (0.65%) of roughly 230,000 compounds were called active. The sample holds actives, similar compounds and a random draw of the others, so the mix is not that of the screen.
Give bare numbers, in %.

Some solved entries appear below for comparison.
{"molecule": "C=CCC[C@H](Cc1ccc(F)cc1)C(=O)OC[C@@H](Cc1c[nH]c2ccccc12)NC(=O)[C@H](CC=C)CC(=O)N[C@H](CO)Cc1ccccc1", "reported": 1.3}
{"molecule": "O=C(Nc1cc2c3c(c1)C1CCCC1CN3CC1CCCC21)c1ccc([N+](=O)[O-])cc1 (centres undefined)", "reported": -11.5}

Consider the following items and state reported DAPI nuclei signal change (viability), lower = more cytotoxic for each.
1. O=C(Nc1ccc(C(=O)N2CCCCC2)cc1)c1cccc([N+](=O)[O-])c1
2. C=CCC[C@H](Cc1ccc(F)cc1)C(=O)OC[C@H](C)NC(=O)[C@H](CC=C)CC(=O)N(CCO)Cc1ccccc1

Reply |
1: 5.03; 2: -5.64

* * *

experiment: inhibitors of triacylglycerol accumulation, primary screen, cell-based, uHTS, fluorescence, H9c2 (AID 651582); conditions: H9c2 cells, Nile Red lipid (TAG) fluorescence, at 12.5 µM, cells loaded with 200 µM oleic acid; measured here: DAPI nuclei count viability
About 1,500 (0.65%) of roughly 230,000 compounds were called active. The sample holds actives, similar compounds and a random draw of the others, so the mix is not that of the screen.
value-kind: DAPI nuclei signal change (viability), lower = more cytotoxic (%)
Numbers only, in %.

Some solved entries appear below for comparison.
{"compound": "O=C(CCc1ccc(S(=O)(=O)N2CCOCC2)cc1)OCC(=O)c1ccc(Br)cc1", "reported": 5.4}
{"compound": "O=c1c(Cl)c(NC2CC2)cnn1-c1ccccc1", "reported": -5.81}
{"compound": "CCN1CCN(C(=O)c2ccccc2N(C)S(=O)(=O)c2ccc(C)cc2)CC1", "reported": -0.758}
{"compound": "Cc1cccc(-n2ncc(Cl)c(Cl)c2=O)c1", "reported": -35.3}
{"compound": "CCN(CC)C(=O)C1=C(C)N(Cc2ccccc2)C(=O)C(CC(=O)NC(c2ccccc2)c2ccccc2)C1 (centres undefined)", "reported": -1.27}
{"compound": "CN(C)C(=S)N=c1ssc(=S)n1Cc1ccco1", "reported": -24}
{"compound": "O=C(COc1ccc(Br)cc1)OCC(=O)c1ccc[nH]1", "reported": 0.498}
{"compound": "O=C1OCC2=C1C(c1ccc(Cl)cc1)c1cc3c(cc1O2)OCO3 (centres undefined)", "reported": 6.8}
{"compound": "CN(/N=C/c1ccccc1)C(=S)c1ccccc1", "reported": -19.1}
{"compound": "O=C(NN=Cc1ccccc1)c1ccccc1", "reported": 1.87}

Consider the following items and state reported DAPI nuclei signal change (viability), lower = more cytotoxic for each.
1. CC1CN(Cc2ccco2)C(=S)N(c2ccccc2)C1=O (centres undefined)
2. O=C1c2ccccc2C(=O)c2c1cccc2N1CCN(Cc2ccccc2)CC1

Reply |
-1.49
4.09

Consider the following items and state reported DAPI nuclei signal change (viability), lower = more cytotoxic for each.
1. Cc1cs/c(=N\N=C\c2ccc(O)cc2)n1Cc1ccco1
2. Cc1ccc(OCC(=O)Nc2ccc(-c3nc4ncccc4o3)cc2)cc1
3. COc1ccc(Oc2c(Cl)cnn(-c3ccccc3)c2=O)cc1
4. COc1ccc(NC(=O)c2cc(-c3ccc(C)cc3)on2)cc1
5. O=C(OCCN1C(=O)c2ccccc2C1=O)[C@@H]1CC(O)CN1S(=O)(=O)c1ccccc1[N+](=O)[O-] (some centres undefined)
6. COc1cc(Cn2c3ccc(NC(=O)CC(C)c4ccccc4)cc3c(=O)n2C)ccc1F (centres undefined)
7. Cc1ccsc1/C=N/Nc1ccc(Cl)nn1
8. COc1ccc(-c2c(C#N)cnc(C)c2C)c(O)c1OC

Reply |
1. -3.51
2. 18.7
3. 2.85
4. 4.01
5. -0.22
6. 6.84
7. -14
8. -5.41

Consider the following items and state reported DAPI nuclei signal change (viability), lower = more cytotoxic for each.
1. NC(=O)c1ccccc1N(Cc1ccccc1)S(=O)(=O)c1ccccc1
2. O=C(CN1C(=O)NC2(CCOc3ccccc32)C1=O)Nc1cccc([N+](=O)[O-])c1 (centres undefined)
3. CCn1c2ccccc2c2cc(NC(=O)CNC)ccc21

Reply |
-8.47
-0.437
-1.08
